Test system: Wnt activity (Sp5-Luc reporter, SW480 colon carcinoma cells)
procedure_details: Screening assay for Wnt activity: Sp5-Luc reporter gene assay in SW480 colon carcinoma cells
Format: cell-based
measurement_context: Homo sapiens; Sp5-Luc reporter, SW480 cells, overnight incubation
The label is yes for EC50 below 1 µM and no for EC50 equal to or exceeding 1 µM.

{"compound": "CC(C)(C)C(=O)Nc1cncc(-c2cc3c(-c4cc5c(-c6cccc(F)c6)nccc5[nH]4)n[nH]c3cn2)c1 [Compound 8]", "classification": "no"}
{"compound": "c1ccc(CNCc2cncc(-c3cc4c(-c5cc6c(-c7ccncc7)nccc6[nH]5)n[nH]c4cn3)c2)cc1 [Compound 136]", "classification": "no"}
{"compound": "c1cncc(-c2cc3c(-c4cc5c(N6CCCCC6)nccc5[nH]4)n[nH]c3cn2)c1 [Compound 172]", "classification": "yes"}
{"compound": "Cc1ccncc1-c1cc2c(-c3cc4cnccc4[nH]3)n[nH]c2cn1 [Compound 257]", "classification": "yes"}
{"compound": "O=C(Cc1ccccc1)Nc1cncc(-c2cc3c(-c4cc5c(-c6ccccc6F)nccc5[nH]4)n[nH]c3cn2)c1 [Compound 66]", "classification": "no"}

Proceed to the following item.
IN: Please indicate whether the reported EC50 of O=C(Nc1cncc(-c2cc3c(-c4cc5c(-c6cccc(F)c6)nccc5[nH]4)n[nH]c3cn2)c1)c1ccccc1 [Compound 11] is strictly below 1 µM.
OUT: no
